target: Interleukin-2 receptor subunit alpha (Homo sapiens); experiment: Inhibition of IL-2R alpha (unknown origin)
Sequence (P01589 whole entry): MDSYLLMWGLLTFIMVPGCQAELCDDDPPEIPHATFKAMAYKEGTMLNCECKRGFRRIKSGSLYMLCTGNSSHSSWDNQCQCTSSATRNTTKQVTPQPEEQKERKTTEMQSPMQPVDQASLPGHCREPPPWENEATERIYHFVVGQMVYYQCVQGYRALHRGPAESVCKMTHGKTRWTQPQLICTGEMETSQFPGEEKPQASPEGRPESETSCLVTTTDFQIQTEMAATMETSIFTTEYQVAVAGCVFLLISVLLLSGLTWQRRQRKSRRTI
measurement type: pIC50
Note on units: pIC50 is unitless, being -log10 of a concentration expressed in mol/L.

Q: Item `COC(=O)[C@H](Cc1ccc(C#Cc2ccccc2)cc1)NC(=O)C[C@H]1CCCN(C(=N)N)C1` has what recorded pIC50?
Ans: 5.52
